Subject of test: 5-HT2C (Homo sapiens, UniProt P28335)
Sequence (P28335 33-458): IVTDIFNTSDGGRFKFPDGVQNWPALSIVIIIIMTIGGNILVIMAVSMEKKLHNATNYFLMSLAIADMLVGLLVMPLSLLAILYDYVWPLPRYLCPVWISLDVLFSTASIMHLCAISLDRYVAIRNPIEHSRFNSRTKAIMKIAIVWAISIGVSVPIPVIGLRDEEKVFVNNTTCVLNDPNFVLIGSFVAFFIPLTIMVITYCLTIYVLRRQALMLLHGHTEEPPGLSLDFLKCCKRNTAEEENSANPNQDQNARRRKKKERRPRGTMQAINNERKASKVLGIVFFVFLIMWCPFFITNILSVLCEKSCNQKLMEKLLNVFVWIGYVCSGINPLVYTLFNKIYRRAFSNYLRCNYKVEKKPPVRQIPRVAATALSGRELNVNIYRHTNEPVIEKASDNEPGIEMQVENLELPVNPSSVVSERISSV
Measurement kind: pKi
The value called pKi is obtained by taking minus log10 of the concentration in mol/L.

INSERT INTO measurements (compound, result_number) VALUES
  ('COc1cc([N+](=O)[O-])c(OC)cc1CCNCc1ccccc1[N+](=O)[O-] [25N-NBNO2 (15)]', 6.55),
  ('COc1cc([N+](=O)[O-])c(OC)cc1CCNCc1cccc2c1OC(F)(F)O2 [25N-NBMDF2 (13)]', 6.67),
  ('COc1cc([N+](=O)[O-])c(OC)cc1CCNCc1ccccc1-c1ccccc1 [25N-NBPh (17)]', 6.43);

Q: Record COc1cc([N+](=O)[O-])c(OC)cc1CCNCc1cccc(C)c1O [25N-NB-2-OH-3-Me (18)] : what is its pKi with 5-HT2C (Homo sapiens, UniProt P28335)?
Result: 8.54

Q: Notebook entry, 5-HT2C (Homo sapiens, UniProt P28335) assay: pKi of COc1cc([N+](=O)[O-])c(OC)cc1CCNCc1ccccc1C(F)(F)F [25N-NBCF3 (14)] = ?
Result: 6.99

Q: Value wanted: pKi (5-HT2C (Homo sapiens, UniProt P28335)) of entry COc1cc([N+](=O)[O-])c(OC)cc1CCNCc1cccc(O)c1 [25N-NB-3-OH (21)]
Result: 7.08

---

Subject of test: 5-HT2A (Homo sapiens)
Assay method text: Ca2+ flux assay, 5-HT2A
Format: cell-based
Set-up: expressed in transfected cells
Test settings: 5-HT2A EC50, nM, Ca2+ flux
Recorded log10 of EC50, one value per entry.
Would you kindly interpret these values as log10 of EC50 expressed in nM?

The following molecules have reported results that may help.
INSERT INTO assay_data (molecule, measurement_kind, result_number) VALUES
  ('COc1cc([N+](=O)[O-])c(OC)cc1CCNCc1ccccc1[N+](=O)[O-] [25N-NBNO2 (15)]', 'log10 of EC50', 1.19),
  ('COc1cc([N+](=O)[O-])c(OC)cc1CCNCc1cccc(F)c1 [25N-NB-3-F (24)]', 'log10 of EC50', 0.35),
  ('COc1cc([N+](=O)[O-])c(OC)cc1CCNCc1cccc2c1OC(F)(F)O2 [25N-NBMDF2 (13)]', 'log10 of EC50', 0.48),
  ('COc1ccc(OC)c(CNCCc2cc(OC)c([N+](=O)[O-])cc2OC)c1 [25N-NB-2,5-DiMeO (20)]', 'log10 of EC50', 2.12),
  ('COc1cc([N+](=O)[O-])c(OC)cc1CCNCc1ccccc1F [25N-NBF (7)]', 'log10 of EC50', 0.19);

Q: What measured log10 of EC50 goes with COc1cc([N+](=O)[O-])c(OC)cc1CCNCc1cccc(O)c1 [25N-NB-3-OH (21)] ?
Result: 0.52

Q: Any idea what its log10 of EC50 is? The molecule is COc1cc([N+](=O)[O-])c(OC)cc1CCNCc1cccc(F)c1OC [25N-NB-2-MeO-3-F (19)]
Result: 0.37

Q: # log10 of EC50 lookup, item COc1cc([N+](=O)[O-])c(OC)cc1CCNCc1ccccc1 [25N-NB (2)]
Result: 0.10

---

Subject of test: 5-HT2A (Homo sapiens, UniProt P28223)
Sequence (P28223 whole entry): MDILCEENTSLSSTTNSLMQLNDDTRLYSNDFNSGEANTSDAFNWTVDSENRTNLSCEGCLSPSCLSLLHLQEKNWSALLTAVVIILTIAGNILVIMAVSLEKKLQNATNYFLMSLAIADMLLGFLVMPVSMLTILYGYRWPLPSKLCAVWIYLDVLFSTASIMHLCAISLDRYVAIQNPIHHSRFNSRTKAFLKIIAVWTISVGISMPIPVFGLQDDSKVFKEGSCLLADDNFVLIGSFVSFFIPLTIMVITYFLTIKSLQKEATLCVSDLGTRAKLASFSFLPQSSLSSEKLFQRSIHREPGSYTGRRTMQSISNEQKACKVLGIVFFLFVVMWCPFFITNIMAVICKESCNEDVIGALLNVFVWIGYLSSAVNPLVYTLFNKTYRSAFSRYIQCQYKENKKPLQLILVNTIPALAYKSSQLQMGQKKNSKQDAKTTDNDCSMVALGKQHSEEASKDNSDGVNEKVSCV
Assay method text: cell-based
Design: expressed in transfected cells; host or cells: HEK293T, transient
Test settings: read-out: 5-HT2A β-arrestin Emax (% 5-HT), BRET, mean ± SEM
Think of 80% as a floor: if Emax stands on it or above, it is Y; beneath it, N.

INSERT INTO measurements (compound, label_class) VALUES
  ('COc1cc(CC(C)N)c(OC)cc1I.Cl (racemic) [(±)-DOI, hydrochloride, reference compound]', 'Y'),
  ('COc1cc(CCNC2CCc3cccc(O)c32)c(OC)cc1C (stereo not drawn)', 'Y'),
  ('COc1cc([N+](=O)[O-])c(OC)cc1CCNCc1ccccc1 [25N-NB (2)]', 'Y'),
  ('COc1cc(OC)c(OC)cc1CCNCc1ccc(-c2cccs2)s1', 'Y'),
  ('COc1cc([N+](=O)[O-])c(OC)cc1CCN [2C-N (1), reference compound]', 'Y');

Q: Entry "COc1cc(Br)c(CCNCc2cccc(C)c2O)cc1OC" : is its Emax no less than 80%?
Result: Y

Q: Reported Emax reaches at least 80% for COc1cc(CCNCc2ccccc2-c2ccccc2)c(OC)cc1C [25D-NBPh (28)] ?
Result: Y

---

Subject of test: UniProt P28335
Assay method text: BRET Gq dissociation, 5-HT2C
Assay type: cell-based
Design: expressed in transfected cells; host or cells: HEK293T, transient
Test settings: read-out: 5-HT2C Gq Dissociation (BRET) EMAX ± SEM (%5-HT)
Measurement kind: Emax (%)
Write the answer as a number in %, unit excluded.

# example entries with known answers
INSERT INTO measurements (molecule, result_number) VALUES
  ('COc1cc(OC)c(OC)cc1CCNCc1cccc(Br)c1O [(48)]', 69.2),
  ('COc1cc([N+](=O)[O-])c(OC)cc1CCNCc1ccccc1Br [25N-NBBr (9)]', 81),
  ('COc1cc(CC(C)N)c(OC)cc1I.Cl (racemic) [(±)-DOI, hydrochloride, reference compound]', 114),
  ('COc1cc(CCNCc2ccccc2OC)c(OC)cc1I [Compound 25I-NBOMe, reference compound]', 124),
  ('COc1cc([N+](=O)[O-])c(OC)cc1CCNCc1ccccc1F [25N-NBF (7)]', 83.1),
  ('Brc1c2c(c(CCNCc3cccc4ccccc34)c3c1OCC3)OCC2 [(29)]', 78.1),
  ('COc1cc(Br)cc(OC)c1CC(C)NCc1cccc2ccccc12 (centres unmarked) [(33)]', 80.3);

Would you kindly look at the next entry?
Q: // map COc1cc(OC)c(OC)cc1CCNCc1cccc(C)c1C [(50)] to recorded Emax (system: UniProt P28335)
Result: 30.4

---

Subject of test: 5-HT2A (Homo sapiens, UniProt P28223)
Assay method text: cell-based
Parameters: expressed in transfected cells; host or cells: HEK293T, transient
Test settings: read-out: 5-HT2A β-arrestin Emax (% 5-HT), BRET, mean ± SEM
Measured Emax of individual entries
# unit: % | format: bare number

Study these solved cases before continuing.
INSERT INTO measurements (molecule, measurement_kind, u, result_number) VALUES
  ('COc1cc(OC)c(OC)cc1CCNCc1ccccc1-c1ccc(O)cc1 [(64)]', 'Emax', '%', 80.5),
  ('COc1cc([N+](=O)[O-])c(OC)cc1CCNCc1cccc2ccccc12 [25N-N-1-Nap (16)]', 'Emax', '%', 78.2),
  ('COc1cc(OC)c(OC)cc1CCNCc1cccc2cccnc12 [(54)]', 'Emax', '%', 100),
  ('COc1cc(CCNCc2cccc(C)c2O)ccc1Cl [(47)]', 'Emax', '%', 80.5),
  ('COc1cc([N+](=O)[O-])c(OC)cc1CCNCc1ccccc1-c1ccccc1 [25N-NBPh (17)]', 'Emax', '%', 109),
  ('COc1cc(Br)ccc1CCNCc1cccc(C)c1O [(41)]', 'Emax', '%', 86.6);

Q: Using the record for COc1cc(OC)c(OC)cc1CCNCc1ccccc1C1CC1 [(70)] , report its Emax.
Result: 116

Q: Tell me the measured Emax of COc1cc([N+](=O)[O-])c(OC)cc1CCNCc1cccc(C)c1O [25N-NB-2-OH-3-Me (18)] , please.
Result: 131

Q: So what does the record say about Emax for COc1cc(Br)c(CCNCc2cccc3ccccc23)cc1OC [(30)] ?
Result: 65.1

Q: Emax lookup needed for COc1cc([N+](=O)[O-])c(OC)cc1CCNCc1cccc(F)c1OC [25N-NB-2-MeO-3-F (19)] , thanks.
Result: 120

Q: Please give the measured Emax for this molecule: COc1cc(OC)c(OC)cc1CCNCc1c[nH]nc1-c1ccccc1 [(80)]
Result: 102

Q: Fill blank: measured Emax of the molecule COc1cc(OC)c(OC)cc1CCNCc1ccccc1Oc1ccccc1 [(60)] is ____.
Result: 117

Q: Using the record for COc1cc(OC)c(OC)cc1CCNCc1cccc(-c2ccccc2)c1O [(63)] , report its Emax.
Result: 117

Q: Item COc1cc(OC)c(OC)cc1CCNCc1cccc2c1CCC2 [(51)] has what recorded Emax?
Result: 72.9
